Assignment: determine reported IC50 for the given compounds.
system: AHR (Mus musculus)
Sequence (P30561 whole entry P471L/N533S/M589L, form open): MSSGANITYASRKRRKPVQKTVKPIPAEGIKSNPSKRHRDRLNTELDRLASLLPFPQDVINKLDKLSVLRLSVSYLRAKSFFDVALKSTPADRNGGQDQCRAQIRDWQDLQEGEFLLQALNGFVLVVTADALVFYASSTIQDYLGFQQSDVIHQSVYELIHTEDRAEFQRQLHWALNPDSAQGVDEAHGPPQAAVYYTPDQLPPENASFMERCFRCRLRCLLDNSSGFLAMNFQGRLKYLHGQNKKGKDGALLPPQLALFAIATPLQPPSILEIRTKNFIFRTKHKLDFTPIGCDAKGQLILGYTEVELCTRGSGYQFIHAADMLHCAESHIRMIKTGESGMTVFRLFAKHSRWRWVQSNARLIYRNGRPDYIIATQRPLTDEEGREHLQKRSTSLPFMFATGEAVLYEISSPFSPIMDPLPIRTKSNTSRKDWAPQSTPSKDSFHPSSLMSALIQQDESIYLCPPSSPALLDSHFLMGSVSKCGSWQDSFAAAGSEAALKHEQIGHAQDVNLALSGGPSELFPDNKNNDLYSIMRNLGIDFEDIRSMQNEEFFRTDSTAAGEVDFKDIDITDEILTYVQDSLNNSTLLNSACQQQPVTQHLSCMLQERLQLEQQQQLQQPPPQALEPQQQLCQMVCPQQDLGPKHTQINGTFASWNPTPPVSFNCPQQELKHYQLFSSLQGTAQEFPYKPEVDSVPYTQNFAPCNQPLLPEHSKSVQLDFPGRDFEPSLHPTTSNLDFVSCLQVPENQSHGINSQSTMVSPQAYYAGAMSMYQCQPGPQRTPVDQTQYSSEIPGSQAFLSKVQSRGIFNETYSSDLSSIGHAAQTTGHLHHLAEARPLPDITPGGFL
assay-notes: In vitro assay 3: antagonism in mouse cell line (AHR transactivation, firefly luciferase reporter, kynurenic acid prestimulated)
Assay type: cell-based
condition-label: Hepa 1c1c7 cells, 200 μM kynurenic acid, 20 hours, firefly luciferase reporter, read-out: AHR Antagonism Mouse IC50
Experimental: Examples were tested in selected biological assays one or more times. […] Firefly luciferase activity was determined by the SteadyGlo Luciferase Assay System (Promega, #E2550).
Give just the number in µM; leave the unit off.

Task: Retrieve IC50 on AHR (Mus musculus); query `Cc1nn(C)cc1-c1nc2c3cccc(Br)c3nc(N[C@@H]3CCCCNC3=O)n2n1`
Output: 0.0016

Task: Provide measured IC50 on AHR (Mus musculus) for `COc1ccc(-c2nc3c4cccc(Br)c4nc(N[C@@H](C(=O)NCCN4CCN(C)CC4)C(C)C)n3n2)cc1` please.
Output: 0.0038

Task: Consider the compound `CC(C)n1cc(-c2nc3c4cccc(Br)c4nc(N[C@@H]4CNCCNC4=O)n3n2)cn1` tested on AHR (Mus musculus); state its IC50.
Output: 0.00595

Task: Recall the reported IC50 of `O=C1NCCNC[C@H]1Nc1nc2c(Br)cccc2c2nc(-c3cnn(CC4CCC4)c3)nn12` when tested on AHR (Mus musculus).
Output: 0.0206

Task: Please indicate recorded IC50 of `COc1ccc(-c2nc3c4cccc(S(C)(=O)=O)c4nc(N[C@@H]4CNCCNC4=O)n3n2)cc1` measured with AHR (Mus musculus).
Output: 0.0669

Task: GET IC50 | system: AHR (Mus musculus) | item: `COc1ccc(-c2nc3c4ccccc4nc(N[C@H](C)C(=O)N4CCNCC4)n3n2)cc1`
Output: 0.0138

Task: Provide measured IC50 on AHR (Mus musculus) for `C[C@@H](Nc1nc2c(Br)cccc2c2nc(-c3cnn(C)c3)nn12)C(=O)N1CCN(C)CC1` please.
Output: 0.0221

Task: Consider the compound `COc1ccc(-c2nc3c4cccc(Br)c4nc(N[C@@H](C(=O)O)C(C)C)n3n2)cc1` tested on AHR (Mus musculus); state its IC50.
Output: 0.0158

Task: Specify IC50 for `O=C1NCCNC[C@H]1Nc1nc2c(Br)cccc2c2nc(-c3cn[nH]c3)nn12` , system AHR (Mus musculus).
Output: 4.64

Task: Send back AHR (Mus musculus) IC50 of `COc1ccc(-c2nc3c4cccc(S(=O)(=O)C(C)C)c4nc(N[C@@H]4CCCCNC4=O)n3n2)cc1` only.
Output: 0.0111

Task: Please report the measured IC50 for `CCn1cc(-c2nc3c4cccc(Cl)c4nc(N[C@@H]4CNCCNC4=O)n3n2)c(C)n1` tested on AHR (Mus musculus).
Output: 0.00284

Task: For AHR (Mus musculus), give IC50 of the listed compound: `CCS(=O)(=O)c1cccc2c1nc(N[C@@H]1CNCCNC1=O)n1nc(-c3cnn(C)c3)nc21`
Output: 4.75

Task: GET IC50 where system = AHR (Mus musculus) and item = `COc1ccc(-c2nc3c4cccc(OCC(C)(C)O)c4nc(N[C@@H]4CCCCNC4=O)n3n2)cc1`
Output: 0.138

Task: Write down the reported IC50 (system: AHR (Mus musculus)) of `COc1ccc(-c2nc3c4cccc(Br)c4nc(N[C@H](C)C(=O)N4CC5(CN(C(=O)OC(C)(C)C)C5)C4)n3n2)cc1`
Output: 0.011

Task: Answer with IC50 of `O=C1NCCNC[C@H]1Nc1nc2c(C(F)(F)F)cccc2c2nc(-c3ccc(Cl)cc3)nn12` measured for AHR (Mus musculus).
Output: 0.000324
